Just for reference, paper PMC7039992 is where these values come from.

targetOrTestSystem: dΔS270A CuGE (inactive truncated deglycosylated variant) (Cerrena unicolor, UniProt A0A0A7EQR3, S286A)
Construct: truncated CuGE (residues G79-T458) corresponding to the catalytic domain only; His6 (C); TEV protease cleavage site (C)
assayNotes: Microscale thermophoresis (MST, LabelFree) binding of soluble ligands to dΔS270A
quantity: Kd

// query // Kd lookup, key: COC(=O)[C@H]1OC(O)[C@H](O)[C@@H](O)[C@@H]1OC (stereo partly shown)
// result > 10 mM
